Below: a set of entries, each annotated with reported IC50.
Target: GST-Shc PTB domain fusion protein (human) (UniProt P29353)
Sequence (P29353 111-319 limits assumed): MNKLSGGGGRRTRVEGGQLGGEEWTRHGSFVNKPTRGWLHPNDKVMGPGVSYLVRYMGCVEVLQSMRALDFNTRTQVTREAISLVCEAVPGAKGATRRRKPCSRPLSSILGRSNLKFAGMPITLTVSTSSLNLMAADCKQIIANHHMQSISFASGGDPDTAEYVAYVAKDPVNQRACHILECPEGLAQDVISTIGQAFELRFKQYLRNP
Test: SPR (Biacore) competition; 1 µM GST-Shc PTB over the immobilized polyoma middle T phosphopeptide (competitor m11)
Square brackets hold non-standard residues; d marks the D form. Ends that are not written are not given here. pY = N[C@@H](Cc1ccc(OP(=O)(O)O)cc1)C(=O)O
Parameter: IC50 (µM)

binder="HIIENAQ[pY]FSD [NGF receptor Pro(-2)Ala mutant phosphopeptide His-Ile-Ile-Glu-Asn-Ala-Gln-P.Tyr-Phe-Ser-Asp]" value_reported=2.5
binder="HIIEAPQ[pY]FSD [NGF receptor Asn(-3)Ala mutant phosphopeptide His-Ile-Ile-Glu-Ala-Pro-Gln-P.Tyr-Phe-Ser-Asp]" value_reported=80
